All values here come from paper PMC11046469.

Biological target: ENL YEATS domain (AviSUMO-ENL YEATS) (Homo sapiens, UniProt Q03111)
Construct: encoding ENL YEATS (aa 1−148) was cloned in pET28a-; made in house; host or cells: E. coli BL21(DE3pLysS), co-expressed with BirA (pBirAcm)
Sequence (Q03111 1-148): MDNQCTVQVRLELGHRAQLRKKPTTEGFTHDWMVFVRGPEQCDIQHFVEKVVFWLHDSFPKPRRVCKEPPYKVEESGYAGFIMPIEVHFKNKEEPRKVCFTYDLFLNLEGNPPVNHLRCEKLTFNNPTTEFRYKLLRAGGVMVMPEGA
Experiment: Phage panning of BuK-containing 7-mer library against AviSUMO-ENL YEATS with Illumina NGS abundance
Settings: sheet ENLR3: round 3 of panning against ENL YEATS; TAG = amber codon (BuK); 7-mer library positions V1-V7
Use y when the recorded percent (share of sequence reads) is no lower than 0.002%; use n when it is lower.

sequence.code	discrete.label
WWVFDATAG	y
YDVFCYTAG	y
GRAVDTAGG	n
LTAGMPRSF	n
QRGPRTAGD	n
MTAGGLRHS	n
LAYCTAGHN	n
WWIIGTAGG	y

Now take the following sequence into account.
Q. Please indicate if the recorded percent (share of sequence reads) for "WTAGIIETAGG" meets or exceeds 0.002%.
A. y
